TGT: JAK2 (Homo sapiens)
pIC50: −log10 of the molar value.
Label t when pIC50 is at or above 8; otherwise label f.

>>> print(df.to_string())
                    structure_smiles_string                  tgt  assigned_label
0  Cn1cc(-c2cn3nccc3c(-c3cn([C@]4(CC#N)C[C@H](C#N)C4)nc3N)n2)cn1  JAK2 (Homo sapiens)               t
1  Cn1cc(-c2cn3nccc3c(-c3cn(C4(CC#N)CN(CC#N)C4)nc3N)n2)cn1  JAK2 (Homo sapiens)               f

Alright, here's another molecule for you.
Is pIC50 for CN(C)c1nn([C@]2(CC#N)C[C@@H](C#N)C2)cc1-c1nc(-c2cnn(C)c2)cn2nccc12 at or above 8?
f

---

Listed here: molecules with reported pIC50 for JAK2 (Homo sapiens, UniProt O60674).
Please report pIC50 as the negative decimal logarithm of the molar concentration, giving only the number.

In [3]: df
Out[3]:
                    structure_smiles_string                                  tgt  measured_quantity  result
0  Cn1cc(-c2cn3nccc3c(-c3cn([C@]4(CC#N)C[C@@H](C#N)C4)c4ccncc34)n2)cn1  JAK2 (Homo sapiens, UniProt O60674)              pIC50    8.09
1  Cn1cc(-c2cn3nccc3c(-c3cn([C@]4(CC#N)C[C@@H](C#N)C4)nc3N)n2)cn1  JAK2 (Homo sapiens, UniProt O60674)              pIC50    7.85

Indicate the recorded pIC50 value for this molecule: Cn1cc(-c2cn3nccc3c(-c3cn([C@]4(CC#N)C[C@H](C#N)C4)c4ncncc34)n2)cn1
8.00

Data origin, for the record: patent US12404275B2
